Ref: patent US20250333376A1

- method: Solubility of amorphous material of Compound BMX by the shake flask method
- Format: physicochemical
- conditionNotes: organic solvent or mixture, thermodynamic from solid; solvent Dimethyl sulfoxide; shake flask
- Method: The solubility of amorphous material of Compound BMX was determined by the shake flask method. The amorphous material was obtained by dissolving 500 mg of the Crystal From A of Compound BMX in 10 mL dichloromethane, this solution was evaporated to dryness in vacuum conditions (0 mbar, RT). […] Subsequently, the samples were filtered and diluted for LC analysis and the concentration is determined using a calibration line.

compound: COc1ccc(COc2c(/C=C/C(=O)NO)ccc(OC)c2CC=C(C)C)cc1 [amorphous material of Compound BMX]
solubility at 15 min: 31 to 94 mg/mL
